Hello, the source for this data is patent US10174065B2, in case you need it.

Tested on: 3T3-L1 adipocytes
Assay: Glucose uptake in transformed 3T3-L1 adipocytes (colourometric glucose oxidase method)
Type: cell-based
Conditions: glucose uptake from the media after 3 hour exposure; media containing 8 mM glucose
For each entry below, report its Glucose Uptake value.
One number for each entry, in nM/ul.

molecule	Glucose Uptake (nM/ul)
O=C(O)/C(=C/c1ccccc1)O[C@@H]1O[C@H](CO)[C@@H](O)[C@H](O)[C@H]1O [RX-1]	2.86
COC(=O)/C(=C/c1ccccc1)O[C@@H]1O[C@H](CO)[C@@H](O)[C@H](O)[C@H]1O [RX-1 acrylate]	3.16
CN(C)C(=N)N=C(N)N [Metformin, reference compound]	2.73

Consider now this further molecule.
Please fill in: Glucose Uptake reported for COC(=O)/C(=C/c1ccccc1)O[C@@H]1O[C@H](COC(C)=O)[C@@H](OC(C)=O)[C@H](OC(C)=O)[C@H]1OC(C)=O [RX-1 triacetate] = 3.05
